molecular target: Dihydroorotate dehydrogenase (quinone), mitochondrial (Plasmodium falciparum (isolate 3D7)) (UniProt Q08210); experiment: PfDHODH enzyme inhibitors, primary screen, biochemical, C-terminal His tag, absorbance 600 nm (AID 1175); settings: DCIP absorbance 600 nm, higher = more signal, called active from +8 up or from −8 down;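 note: recombinant parasite enzyme with a five histidine tag at its C terminus; test concentration not given here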
Sequence (Q08210 whole entry, looked up): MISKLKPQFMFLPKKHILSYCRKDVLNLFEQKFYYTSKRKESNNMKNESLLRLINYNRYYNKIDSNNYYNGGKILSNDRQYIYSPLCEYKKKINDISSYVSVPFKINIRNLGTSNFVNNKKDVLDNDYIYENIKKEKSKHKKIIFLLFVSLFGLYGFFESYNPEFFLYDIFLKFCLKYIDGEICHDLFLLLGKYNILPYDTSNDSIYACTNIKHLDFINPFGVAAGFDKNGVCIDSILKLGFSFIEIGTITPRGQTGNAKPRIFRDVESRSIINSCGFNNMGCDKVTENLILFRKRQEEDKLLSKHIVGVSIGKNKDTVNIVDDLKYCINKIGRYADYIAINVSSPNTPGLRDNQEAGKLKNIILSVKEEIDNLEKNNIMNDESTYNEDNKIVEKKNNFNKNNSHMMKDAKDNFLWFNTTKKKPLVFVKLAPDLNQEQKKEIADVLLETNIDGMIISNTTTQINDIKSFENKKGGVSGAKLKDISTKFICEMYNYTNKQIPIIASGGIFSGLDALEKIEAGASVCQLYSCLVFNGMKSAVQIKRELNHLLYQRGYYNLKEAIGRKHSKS
Entry flag: yes if composite z-score reaches -0.6; no if it does not.

Check the entry `COCCOC(=O)N1C(=O)[C@@]2(c3ccccc31)[C@H](C(=O)Nc1nc3ccccc3s1)[C@H]1C(=O)O[C@H](c3ccccc3)[C@H](c3ccccc3)N1[C@@H]2c1ccccc1OCCO` : does composite z-score equal or exceed -0.6? yes

Check the entry `O=C(NCC(F)(F)F)[C@@H]1c2ccccc2C(=O)N(Cc2cc(C(F)(F)F)cc(C(F)(F)F)c2)[C@H]1c1ccc(CO)cc1` : does composite z-score equal or exceed -0.6? yes

Check the entry `COCCCNC(=O)[C@@]1(CCC(=O)OC(C)(C)C)N=C(c2ccc(OCCCO)cc2)O[C@H]1c1ccccc1` : does composite z-score equal or exceed -0.6? no

Check the entry CCCCCCCCCCC(O)C1C=CC2C(=O)N(C)C(=O)C2N1Nc1ccccc1 (centres undefined) : does composite z-score equal or exceed -0.6? yes

Check the entry CC(C)c1ccc(NN2C(C(O)C3CCCCC3)C=CC3C(=O)N(c4ccccc4)C(=O)C32)cc1 (centres undefined) : does composite z-score equal or exceed -0.6? no

Check the entry `O=C1O[C@H](c2ccccc2)[C@H](c2ccccc2)N2[C@H]1[C@@H](C(=O)N1CCCCCCC1)[C@]1(C(=O)Nc3ccc(C#CCCO)cc31)[C@H]2c1ccc(O)cc1` : does composite z-score equal or exceed -0.6? yes

Check the entry CC1CC/C=C\[C@H]2OC34C=CCN(CCN5CCOCC5)C(=O)[C@H]3N(C(CO)C(C)C)C(=O)[C@@H]4C2C(=O)O1 (some centres undefined) : does composite z-score equal or exceed -0.6? no

Check the entry `C=CCNC(=O)[C@H]1[C@@H]2C(=O)O[C@@H](c3ccccc3)[C@@H](c3ccccc3)N2[C@@H](c2ccc(OCCO)cc2)[C@]12C(=O)N(C(=O)OCCOC)c1ccc(C#CCNC(N)=O)cc12` : does composite z-score equal or exceed -0.6? yes

Check the entry O=C1C2C=CC(C(O)C(c3ccccc3)c3ccccc3)N(Nc3ccccc3F)C2C(=O)N1c1ccccc1 (centres undefined) : does composite z-score equal or exceed -0.6? yes

Check the entry `C=CC[C@@]1(C(=O)NCCCOC)N=C(c2ccc(OCCCO)cc2)O[C@@H]1c1ccccc1CN=[N+]=[N-]` : does composite z-score equal or exceed -0.6? yes

Check the entry `CC(C)(C)OC(=O)CC[C@]1(C(=O)N2CCOCC2)COC(c2ccc(OCCCO)cc2)=N1` : does composite z-score equal or exceed -0.6? yes

Check the entry `C=CCOC(=O)[C@H]1[C@@H]2C(=O)O[C@@H](c3ccccc3)[C@@H](c3ccccc3)N2[C@@H](c2ccc(OCCOC(=O)[C@H]3C[C@H]4C(=O)NCC(=O)N4[C@H]3c3ccc(O)cc3)cc2)[C@]12C(=O)Nc1ccccc12` : does composite z-score equal or exceed -0.6? yes

Check the entry COc1cc2c(cc1O)C(C)N(Cc1sc3ccccc3c1Cl)CC2 (centres undefined) : does composite z-score equal or exceed -0.6? no

Check the entry CC(C)N1CC=CC23O[C@@H]4/C=C\CCCOC(=O)C4[C@H]2C(=O)N(C(C)CO)[C@@H]3C1=O (some centres undefined) : does composite z-score equal or exceed -0.6? yes
